- assay.remarks: in vitro
- condition.label: human, hela cells, % viability
Form field: viability at 28.5 h, 10 µM (one value per entry).
quantity.name: viability at 28.5 h, 10 µM (%)

molecule: CS(=O)(=O)c1ccc(C(=O)Nc2nc(-c3ccccc3)cs2)cc1 [CBK287716]
quantitative.readout: 102
--
molecule: COc1cc2c(cc1OC)C(c1ccccc1)N(Cc1ccc(OCCO)cc1)CC2 (centres unmarked) [CBK286359]
quantitative.readout: 80
--
molecule: O=C(Nc1ccc2[nH]ccc2c1)c1ccc(OC(F)(F)F)cc1 [CBK159688]
quantitative.readout: 61.5
--
molecule: CC(C)(C#N)c1ccccc1CN1CCCCC1c1[nH]ncc1C(N)=O (centres unmarked) [CBK304740]
quantitative.readout: 108
--
molecule: CCOc1ncccc1C(=O)OCc1cc2ccc(OC)cc2nc1Cl [CBK295289]
quantitative.readout: 78.1
--
molecule: O=C(O)CNC(=O)Cn1ccc2ccc(OCc3ccccc3)cc21 [CBK286644]
quantitative.readout: 85.9
--
molecule: COc1cc(Br)c(/C=C(/C#N)C(=O)Nc2ccc(O)cc2)cc1OC [CBK262733]
quantitative.readout: 79.9
--
molecule: Cc1ccc(N(CC(=O)Nc2cccc3ccccc23)S(=O)(=O)c2ccc(F)cc2)cc1 [CBK262707]
quantitative.readout: 94.7
--
molecule: CC(=O)N1Cc2cc(C)ccc2OC2(CCCN(CC3CC3)C2)C1 (centres unmarked) [CBK285104]
quantitative.readout: 88.7
--
molecule: CC(Oc1ccccc1)C(=O)Nc1cccc(C#N)c1 (centres unmarked) [CBK264062]
quantitative.readout: 91
--
molecule: COc1cc(C(=O)N2CCC3(CC2)NC(=O)c2cc(C)ccc2O3)ccc1C [CBK166276]
quantitative.readout: 108
--
molecule: O=C(Nc1ccccc1)N[C@H]1CO[C@H]2[C@@H]1OC[C@H]2OCc1ccccc1 [CBK289488]
quantitative.readout: 109
--
molecule: OC(COCc1ccc(Cl)cc1)CN1CCN(c2cccc(Cl)c2)CC1 (centres unmarked) [CBK278315C]
quantitative.readout: 87.9
--
molecule: O=C(NCc1c(Cl)cccc1Cl)N1CCCC(CO)C1 (centres unmarked) [CBK156054]
quantitative.readout: 95.7
--
molecule: Cc1ccc(C(=O)Nc2nc3ccc(S(=O)(=O)N(C)C)cc3s2)cc1 [CBK287603]
quantitative.readout: 93.1
--
molecule: N#Cc1ccccc1N1CCN(c2cncc(-c3cccc4cccnc34)n2)CC1 [CBK037366]
quantitative.readout: 102
--
molecule: COc1cc(C)nc(N2CCN(C(=O)CCc3ccsc3)CC2)n1 [CBK304572]
quantitative.readout: 87.6
--
molecule: COc1ccc(CCC(=O)N2CCCC2c2ccc(Cc3ccccc3F)cn2)cc1 (centres unmarked) [CBK285992]
quantitative.readout: 94.2
--
molecule: N#Cc1c(C(F)(F)F)cc(-c2ccc(Cl)cc2)nc1SCC(=O)O [CBK131885]
quantitative.readout: 97.5
--
molecule: CN1CCC(N2CCN(C(=O)c3cncc(-c4[nH]nnc4-c4ccccc4)c3)CC2)CC1 [CBK160327]
quantitative.readout: 98.3
--
molecule: CC(=O)Nc1ccc(Nc2nc(-c3ccc(O)cc3)cn3ccnc23)cc1 [CBK037992]
quantitative.readout: 94.8
--
molecule: CC(C)C(=O)Nc1cc2ccccc2c(-c2cc(F)cc(F)c2)n1 [CBK085775]
quantitative.readout: 95.4
--
molecule: COc1ccc(CN2CCN(CCCc3ccccc3)CC2)c(OC)c1 [CBK263378]
quantitative.readout: 95.1
--
molecule: c1cc(-c2nccnc2Oc2ccc3c(c2)OCO3)ccn1 [CBK106726]
quantitative.readout: 92.4
--
molecule: O=C(O)c1cc(NC(=O)C2CC2)cc(C(=O)O)c1 [CBK268564]
quantitative.readout: 94.3
--
molecule: COCCOCN1C(=O)CC2(C1=O)C(=O)N(Cc1ccc(OC(F)(F)F)cc1)c1ccccc12 (centres unmarked) [CBK075942]
quantitative.readout: 94.2
--
molecule: C=CCN(CC=C)Cc1c(C)nc2ccc(CC)cc2c1O [CBK264998]
quantitative.readout: 92.6
--
molecule: CC(C)S(=O)(=O)CC(=O)Nc1ccc(C(=O)O)cc1 [CBK020001]
quantitative.readout: 96.6
--
molecule: Nc1ncc(-c2cccc(-c3ccccc3)c2)nc1N1CCN(CCO)CC1 [CBK063410]
quantitative.readout: 113
--
molecule: Cc1cn2c3c(=O)n(CCN4CCCCC4)c(=O)n(C)c3nc2n1CC1CCCO1 (centres unmarked) [CBK269820]
quantitative.readout: 91.9
--
molecule: CC(C)[C@H]1CN(Cc2ccccc2F)CCN1C(=O)Cn1ncc2ccccc2c1=O [CBK286172]
quantitative.readout: 82.2
--
molecule: COc1ccc2cc(C(=O)NCCCc3ccccn3)n(C)c2c1 [CBK282545]
quantitative.readout: 103
--
molecule: Cc1ccc(-n2cccn2)cc1S(=O)(=O)N1CCNCC1C (centres unmarked) [CBK307344]
quantitative.readout: 85.1
--
molecule: COc1cc(OC)c2c(c1)OC1(CCN(C(=O)c3cnc(C)cn3)CC1)CC2=O [CBK156503]
quantitative.readout: 105
--
molecule: CC(=O)NCc1ccc(-c2cc(CN(C)C)n(C)n2)cc1 [CBK281667]
quantitative.readout: 99.1
--
molecule: OCCN1CCN(CC(O)COc2ccc(Cl)cc2Cl)CC1 (centres unmarked) [CBK278198C]
quantitative.readout: 108
--
molecule: O=S(=O)(Nc1ncc(Br)c2cccnc12)c1ccc(Oc2ccccc2)cc1 [CBK073886]
quantitative.readout: 105
--
molecule: Cc1c[n+]2ccsc2n1Cc1ccccc1C#N [CBK260951B]
quantitative.readout: 116
